compounds and their reported cell viability
# Tested on: Vero E6
# assay-method-text: cell viability relative to DMSO; higher = less toxic
# condition-set: 72 h; 1000 nM
readout-name: cell viability (%)

>>> measurement("CCC1(c2ccccc2)C(=O)N(COC)C(=O)N(COC)C1=O [eterobarb]")
106
>>> measurement("C/C=C/C=C/C(=O)O [sorbic-acid]")
94.5
>>> measurement("COc1cc(N2CCN(C)CC2)ccc1Nc1nccc(-c2cn(C)c3cnccc23)n1 [AZ191]")
95
>>> measurement("c1ccc2sc(SNC3CCCCC3)nc2c1 [N-cyclohexyl-2-benzothiazolesulfenamide]")
107
>>> measurement("CN(N=O)C(=O)N[C@@H](C=O)[C@@H](O)[C@H](O)[C@H](O)CO [streptozotocin]")
96.7
>>> measurement("CC(C)C[C@@H](N)C1(c2ccc(Cl)cc2)CCC1")
98.8
>>> measurement("CC(C)(O)C(=O)N1CCN(c2ccc(C(F)(F)F)c(C3=C(c4c[nH]c5ccccc45)C(=O)NC3=O)c2)CC1")
104
>>> measurement("Cc1nc(NC(=O)N2CCC[C@H]2C(N)=O)sc1-c1csc(C(C)(C)C)n1 [A66]")
101
>>> measurement("CC1(C)S[C@@H]2[C@H](N3C(=O)[C@@H](c4ccccc4)NC3(C)C)C(=O)N2[C@H]1C(=O)O [hetacillin]")
110
>>> measurement("Oc1ccc(C2(c3ccccc3F)CCC(F)(F)CC2)cc1 [AC-186]")
92.2
>>> measurement("COC[C@H]1OC(=O)c2coc3c2[C@@]1(C)C1=C(C3=O)[C@@H]2CCC(=O)[C@@]2(C)C[C@H]1OC(C)=O [wortmannin]")
88.9
>>> measurement("O=C(O)CNC(=O)c1nc(Cl)c2ccccc2c1O [FG-2216]")
102
>>> measurement("C=C[C@@H]1C[C@]1(NC(=O)[C@@H]1C[C@@H](Oc2ncc(OC)c3ccc(Cl)cc23)CN1C(=O)[C@@H](NC(=O)OC(C)(C)C)C(C)(C)C)C(=O)NS(=O)(=O)C1CC1 [asunaprevir]")
101
>>> measurement("CC#C[C@@H](CC(=O)O)c1ccc(OCc2cccc(-c3ccc(C(F)(F)F)cc3)c2)cc1 [AMG-837]")
102
>>> measurement("Cc1nc2sccn2c(=O)c1CCN1CCC(=C(c2ccccc2)c2ccc(F)cc2)CC1")
100
>>> measurement("CCC/C=C1\\OC(=O)C2=C1CCC=C2 [ligustilide]")
100
>>> measurement("CCCCCCCCCCCCCCCC[n+]1ccccc1 [cetylpyridinium]")
91.6
>>> measurement("CNC(=O)c1c(C)oc2cc(Oc3ncnc4cc(OC)c(OC)cc34)ccc12 [fruquintinib]")
94.5

----------
# Test system: Calu-3
# assay-method-text: drug sensitivity score (DSS) for viability; higher = more toxic; extreme values may be limits of the assay
# condition-set: 72 h
Where a name gives a salt, the structure may show the parent alone.
readout-name: drug sensitivity score

>>> measurement("Cc1ccccc1N(C)C(=O)c1ccc([S+]([O-])c2nccs2)c([N+](=O)[O-])c1 (stereo not drawn)")
5.2
>>> measurement("N#C/C(=C1/SC[C@@H](c2ccc(Cl)cc2Cl)S1)n1ccnc1 [luliconazole]")
0
>>> measurement("Cc1cc(Nc2nc(N[C@@H](C)c3ncc(F)cn3)ncc2Cl)[nH]n1 [AZD1480]")
0
>>> measurement("O=c1[nH]nc2c3c(cccc13)N=C(CN1Cc3ccccc3C1)N2 [E7449]")
0.1
>>> measurement("CO/N=C(\\C(=O)N[C@@H]1C(=O)N2C(C(=O)O)=C(CSC(=O)c3ccco3)CS[C@H]12)c1csc(N)n1 [CEFTIOFUR HYDROCHLORIDE]")
0
>>> measurement("COC(=O)CCc1ccc(OCC(O)CNC(C)C)cc1 (stereo not drawn) [esmolol]")
0
>>> measurement("CCCCCCCCCCCCCCCC[n+]1ccccc1 [cetylpyridinium]")
5.4
>>> measurement("CC#C[C@@H](CC(=O)O)c1ccc(OCc2cccc(-c3ccc(C(F)(F)F)cc3)c2)cc1 [AMG-837]")
0
